Reference source for all entries: patent US20090044291A1

study-target: Arabidopsis ABAR/CHLH (H subunit of Mg-chelatase) (Arabidopsis thaliana)
Construct: 6xHis; made in house; host or cells: Pichia methanolica (Pichia Methanolica Expression kit, Invitrogen)
Sequence (Q9FNB0 50-1381): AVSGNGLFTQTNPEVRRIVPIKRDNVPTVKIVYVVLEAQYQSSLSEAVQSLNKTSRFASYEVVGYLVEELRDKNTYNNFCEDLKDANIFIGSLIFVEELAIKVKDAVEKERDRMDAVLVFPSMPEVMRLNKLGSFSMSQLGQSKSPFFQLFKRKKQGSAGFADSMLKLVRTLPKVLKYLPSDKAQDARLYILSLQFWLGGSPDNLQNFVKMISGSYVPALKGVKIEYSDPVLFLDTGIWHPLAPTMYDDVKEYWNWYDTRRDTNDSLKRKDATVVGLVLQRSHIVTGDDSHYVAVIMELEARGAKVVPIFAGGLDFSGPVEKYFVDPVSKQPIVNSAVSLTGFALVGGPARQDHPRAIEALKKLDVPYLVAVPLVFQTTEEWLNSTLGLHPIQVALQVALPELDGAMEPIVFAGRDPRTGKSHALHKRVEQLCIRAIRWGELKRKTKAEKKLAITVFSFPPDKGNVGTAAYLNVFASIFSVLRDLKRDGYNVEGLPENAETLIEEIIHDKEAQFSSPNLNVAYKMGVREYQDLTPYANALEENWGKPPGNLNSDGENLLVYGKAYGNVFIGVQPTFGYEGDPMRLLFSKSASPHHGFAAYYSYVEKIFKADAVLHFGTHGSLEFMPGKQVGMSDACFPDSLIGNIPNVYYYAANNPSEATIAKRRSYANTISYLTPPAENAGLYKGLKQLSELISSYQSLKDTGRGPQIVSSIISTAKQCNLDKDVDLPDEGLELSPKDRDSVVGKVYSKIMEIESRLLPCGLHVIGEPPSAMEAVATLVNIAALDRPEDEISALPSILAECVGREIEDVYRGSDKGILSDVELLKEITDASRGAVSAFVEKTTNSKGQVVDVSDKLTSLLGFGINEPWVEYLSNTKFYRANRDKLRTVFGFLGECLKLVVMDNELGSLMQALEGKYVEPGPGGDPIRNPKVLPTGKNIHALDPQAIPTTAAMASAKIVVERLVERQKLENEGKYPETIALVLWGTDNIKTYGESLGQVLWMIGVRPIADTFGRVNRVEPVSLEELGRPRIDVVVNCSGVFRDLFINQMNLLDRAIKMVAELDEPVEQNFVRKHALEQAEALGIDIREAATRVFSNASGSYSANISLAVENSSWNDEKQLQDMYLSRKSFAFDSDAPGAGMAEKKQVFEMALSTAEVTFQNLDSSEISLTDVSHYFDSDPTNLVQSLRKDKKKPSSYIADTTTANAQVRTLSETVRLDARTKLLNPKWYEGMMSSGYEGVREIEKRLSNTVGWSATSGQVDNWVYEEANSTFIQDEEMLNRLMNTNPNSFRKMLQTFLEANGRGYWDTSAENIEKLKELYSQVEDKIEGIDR
test-description: ABA binding assay with purified yeast-expressed ABAR/CHLH
quantity-measured: pKd
Scale: negative log10 of molar concentration, which is what pKd denotes.

Query: What value of pKd has been reported for the following compound? CC1=CC(=O)CC(C)(C)C1(O)/C=C/C(C)=C\C(=O)O (stereo not shown) [ABA, abscisic acid]
Result: 7.49

---

study-target: natural ABAR/CHLH protein (Arabidopsis thaliana, UniProt Q9FNB0)
Construct: 50 μg proteins of the crude extracts from two-week-old Arabidopsis seedlings; from tissue; host or cells: crude extracts of two-week-old Arabidopsis seedlings / leaves of gl1 (WT), RNAi line 12 and overexpressor line 1
test-description: ABA binding assay with crude extracts of leaves (WT, RNAi, OE lines)
condition-label: leaf extracts of wild-type plants (WT); read-out: Kd (equilibrium dissociation constant)
quantity-measured: pKd
Scale: negative log10 of molar concentration, which is what pKd denotes.

Query: What value of pKd has been reported for the following compound? CC1=CC(=O)CC(C)(C)C1(O)/C=C/C(C)=C\C(=O)O (stereo not shown) [ABA, abscisic acid]
Result: 7.46

---

study-target: natural ABAR/CHLH protein (Arabidopsis thaliana)
Construct: 50 μg proteins of the crude extracts from two-week-old Arabidopsis seedlings; from tissue; host or cells: crude extracts of two-week-old Arabidopsis seedlings / leaves of gl1 (WT), RNAi line 12 and overexpressor line 1
test-description: ABA binding assay with crude extracts of leaves (WT, RNAi, OE lines)
condition-label: across WT, RNAi and overexpressing leaf extracts; read-out: Kd
pKd: −log10 of the molar value.
quantity-measured: pKd

Query: Lookup: pKd / natural ABAR/CHLH protein (Arabidopsis thaliana) / CC1=CC(=O)CC(C)(C)C1(O)/C=C/C(C)=C\C(=O)O (stereo not shown) [ABA, abscisic acid]
Result: 7.42 to 7.46

---

study-target: ABAR (Arabidopsis thaliana)
Sequence (Q9FNB0 50-1381): as above
quantity-measured: pKd
Scale: negative log10 of molar concentration, which is what pKd denotes.

Query: What value of pKd has been reported for the following molecule? CC1=CC(=O)CC(C)(C)C1(O)/C=C/C(C)=C\C(=O)O (stereo not shown) [ABA, abscisic acid]
Result: 7.44

---

study-target: natural ABAR/CHLH protein (Arabidopsis thaliana, UniProt Q9FNB0)
Construct: 50 μg proteins of the crude extracts from two-week-old Arabidopsis seedlings; from tissue; host or cells: crude extracts of two-week-old Arabidopsis seedlings / leaves of gl1 (WT), RNAi line 12 and overexpressor line 1
test-description: ABA binding assay with crude extracts of leaves (WT, RNAi, OE lines)
condition-label: leaf extracts of overexpressors of ABAR/CHLH gene (OE, line 1); read-out: Kd
quantity-measured: pKd
Scale: negative log10 of molar concentration, which is what pKd denotes.

Query: What value of pKd has been reported for the following compound? CC1=CC(=O)CC(C)(C)C1(O)/C=C/C(C)=C\C(=O)O (stereo not shown) [ABA, abscisic acid]
Result: 7.42
